Experiment: Viability Counterscreen for Confirmatory qHTS for Inhibitors of ATXN expression; also: nearly all actives have a fitted effect of over 50% in size; also: potency is read from the fitted curve at half-maximal effect
Conditions: HEK-293 ATXN2-luc cells viability, CellTiter-Fluor, 24 h
About 260 (12%) of roughly 2,100 compounds were called active. Roughly 58% stayed inconclusive and do not appear here. This is one part of the list.
readout: Potency

Look over these answered cases.
O=C(Nc1nc(NC(=O)c2ccco2)n(-c2ccccc2)n1)c1ccccc1 ... 22.4 µM (active)
O=C(NNCc1ccccc1)c1ccccc1 ... inactive
COc1ccccc1NC(=S)NC(=O)c1ccc(Cn2cc(Br)cn2)cc1 ... inactive
CCCOc1ccccc1C1NC(=O)NC(C)=C1C(=O)OCc1ccccc1 (centres undefined) ... inactive
O=C(NN=C1CCCC1)c1cc(-c2ccc(F)cc2)nc2ccccc12 ... inactive

# Potency lookup, item CCCOc1ccc(C(=O)NC(=S)NNC(=O)c2c(-c3ccccc3)noc2C)cc1
inactive

# Potency lookup, item COc1cc(NC(=O)c2cccc3c(-c4cnn(C)c4)coc23)cc(OC)c1OC
31.6 µM (active)

# Potency lookup, item O=C(/C=C/c1ccc(Cl)cc1)Nc1ccc(CN2CCOCC2)cc1
inactive

# Potency lookup, item Cc1cc(C)cc(NC(=O)CCC(=O)Nc2cc(C)on2)c1
inactive

---

Assay: Viability Counterscreen for Confirmatory qHTS for Inhibitors of ATXN expression; also: nearly all actives have a fitted effect of over 50% in size; also: potency is read from the fitted curve at half-maximal effect
Settings: HEK-293 ATXN2-luc cells viability, CellTiter-Fluor, 24 h
The campaign covered roughly 2,100 compounds. About 260 (12%) were called active. About 58% were inconclusive and are not listed. Some of the results follow.
readout: Potency

Look over these answered cases.
Cn1c(=O)c2cc(NC(=O)Nc3cccnc3)ccc2n1Cc1ccc(Cl)cc1 ... inactive
O=C(Nc1nonc1-c1ccc(Cl)cc1)c1ccccc1 ... inactive
COc1ccccc1-c1ccc2c(c1)C(C)(Cc1cccc(F)c1)C(=O)N2 (stereo not drawn) ... inactive
COc1cc(Nc2ncc3c(n2)CCN(C(=O)Nc2ccc(C(C)C)cc2)C3)cc(OC)c1OC ... inactive
Cc1cc(OCCCCCn2ccnc2)cc(C)c1Cl ... inactive
O=C(/C=C/Nc1ccc(S(=O)(=O)Nc2ncccn2)cc1)c1ccc(Cl)c(Cl)c1 ... inactive
O=C(/C=C/NNC(=O)c1ccccc1)c1ccc([N+](=O)[O-])cc1 ... 12.6 µM (active)

Now consider the entry below.
# Potency lookup, item CCN1C(=O)/C(=C/c2nc3ccccc3c(=O)n2-c2ccccc2)c2ccccc21
25.1 µM (active)

---

Test: Viability Counterscreen for Confirmatory qHTS for Inhibitors of ATXN expression; also: nearly all actives have a fitted effect of over 50% in size; also: potency is read from the fitted curve at half-maximal effect
Conditions: HEK-293 ATXN2-luc cells viability, CellTiter-Fluor, 24 h
The whole screen tested about 2,100 compounds, of which about 260 (12%) were called active. Inconclusive results (about 58%) are left out. The list shows a part of the results.
readout: Potency

Look over these answered cases.
COc1cc(/C=N/Nc2ccc(Cl)c(C(=O)O)c2)ccc1OC(=O)c1ccco1 ... inactive
Cc1nc(SCc2ccc(C(=O)O)cc2)nc2c1CCCC2 ... inactive
CCCCN1C(=O)/C(=C2/Sc3ccccc3N2C)S/C1=N\c1ncn[nH]1 ... inactive
CN(CC(=O)Nc1ccc(Cl)c(C(F)(F)F)c1)C(=O)c1cccnc1Sc1ccccc1 ... inactive
COc1cccc(-c2nc(N3CCN(C)CC3)c3ccccc3n2)c1O ... inactive
N#C/C(=C\C=C\c1ccccc1[N+](=O)[O-])C(=O)NC1CCCCC1 ... 20 µM (active)
CSc1ncnc2c1ncn2CC(=O)C1CCC2C3CCC4=CC(=O)CCC4(C)C3CCC12C (centres undefined) ... 17.8 µM (active)
Cc1ccc(C(=O)N(C)CC(=O)Nc2ccc(Cl)c(C(F)(F)F)c2)cc1S(=O)(=O)N1CCCCC1 ... 25.1 µM (active)

# Potency lookup, item Cc1ccc(-c2nnc(N3CCC(C)CC3)c3ccccc23)cc1C
inactive

# Potency lookup, item COC(=O)c1ccsc1NC(=O)CN1CCN(Cc2ccc3c(c2)OCO3)CC1
inactive

# Potency lookup, item CCOC(=O)Oc1c(OC)cc(C(=O)O[C@@H]2C[C@@H]3CN4CCc5c([nH]c6cc(OC)ccc56)[C@H]4C[C@@H]3[C@H](C(=O)OC)[C@H]2OC)cc1OC
inactive

# Potency lookup, item CCCc1cc(C(=O)Nc2ccc(C(=O)c3ccc(C)cc3)cc2)n(C)n1
inactive

# Potency lookup, item CC(C)N(Cc1ccccc1)C(=O)/C=C/c1ccccc1[N+](=O)[O-]
inactive

# Potency lookup, item O=C(CNc1cccc(C(F)(F)F)c1)Nc1cccc(S(=O)(=O)N2CCCC2)c1
inactive

---

Assay: Viability Counterscreen for Confirmatory qHTS for Inhibitors of ATXN expression; also: nearly all actives have a fitted effect of over 50% in size
Settings: HEK-293 ATXN2-luc cells viability, CellTiter-Fluor, 24 h
Hit rate of the full screen: of about 2,100 compounds, about 260 (12%) were called active. Inconclusive results (about 58%) are left out. Calls come from the whole dose curve; as a rule, active = well fitted cell-killing curve with a large enough effect; inconclusive = small, poorly fitted or top-dose-only effect, or effect the other way; inactive = flat fitted curve, though single readings scatter. The list shows a part of the results.
Hello, when you answer, please use one of the following outcomes: active, inactive

Here's what some known entries look like.
CCc1ccc(-c2nc(CS(=O)CC(=O)NCc3ccco3)c(C)o2)cc1 (centres undefined) ... inactive
Cc1cccn2c(=O)c3cc(C(=O)NCCc4ccccc4)c(=N)n(CCCn4ccnc4)c3nc12 ... inactive
Fc1ccc2[nH]c3c(N4CCSCC4)ncnc3c2c1 ... active
NC(=O)c1c(NC(=O)c2ccc(S(=O)(=O)N3CCOCC3)cc2)sc2c1CCCCC2 ... inactive
Fc1ccc2[nH]c3c(NCc4ccccc4)ncnc3c2c1 ... inactive

// outcome(item) with item = Cc1c(CC(=O)NCCCC(=O)O)c(=O)oc2cc3c(cc12)CCC(C)(C)O3
inactive

// outcome(item) with item = CN(Cc1cnc2nc(N)nc(N)c2n1)c1ccc(C(=O)NC(CCC(=O)O)C(=O)O)c2ccccc12 (centres undefined)
inactive

// outcome(item) with item = CC1(C)Cc2c(sc(NC(=O)c3ccc(C(=O)c4ccccc4)cc3)c2C(N)=O)C(C)(C)N1
active

// outcome(item) with item = COc1cccc(NC(=O)/C=C/c2ccc(S(=O)(=O)N3CCOCC3)cc2)c1
inactive

---

Assay: Viability Counterscreen for Confirmatory qHTS for Inhibitors of ATXN expression; also: nearly all actives have a fitted effect of over 50% in size
Conditions: HEK-293 ATXN2-luc cells viability, CellTiter-Fluor, 24 h
The campaign covered roughly 2,100 compounds. About 260 (12%) were called active. Inconclusive results (about 58%) are left out. Calls come from the whole dose curve; as a rule, active = well fitted cell-killing curve with a large enough effect; inconclusive = small, poorly fitted or top-dose-only effect, or effect the other way; inactive = flat fitted curve, though single readings scatter. The list shows a part of the results.
Hello, when you answer, please use one of the following outcomes: TRUE (active), FALSE (inactive)

Here's what some known entries look like.
CC(C)COCc1ccc(O)c2ncccc12 ... FALSE
O=[N+]([O-])c1cc(Cl)c(O)c2ncccc12 ... TRUE
O=C(NN=Cc1ccc(O)cc1O)c1ccccc1NS(=O)(=O)c1cccs1 ... FALSE

Note: attention shifts to another entry.
// outcome(item) with item = O=[N+]([O-])c1ccc(O)c2ncccc12
TRUE

---

Experiment: Viability Counterscreen for Confirmatory qHTS for Inhibitors of ATXN expression; also: nearly all actives have a fitted effect of over 50% in size
Conditions: HEK-293 ATXN2-luc cells viability, CellTiter-Fluor, 24 h
The campaign covered roughly 2,100 compounds. About 260 (12%) were called active. Roughly 58% stayed inconclusive and do not appear here. The call rests on the fitted dose curve; in most records, active means well fitted cell-killing curve with a large enough effect; inconclusive means small, poorly fitted or top-dose-only effect, or effect the other way; inactive means flat fitted curve, though single readings scatter. Some of the results follow.
Hello, when you answer, please use one of the following outcomes: active, inactive

Oc1ccc(C2CNCc3sccc32)cc1O (centres undefined) ... inactive
COC(=O)C1=C(C)N(c2ccc(Cl)c(Cl)c2)C(=O)C1 ... inactive
Cc1ccc(N=Nc2ccc(O)c3ncccc23)cc1 ... active
COc1ccccc1NS(=O)(=O)c1cccc(C(=O)N/N=C/c2ccc([N+](=O)[O-])o2)c1 ... active
O=C(CNC(=O)c1ccccc1O)N/N=C/c1cc(Br)ccc1OC(=O)/C=C/c1ccco1 ... inactive

// outcome(item) with item = CCCC/C(C)=N/NC(=O)c1cn(-c2ccccc2)nc1-c1ccccc1
inactive

// outcome(item) with item = COc1cc(C(=O)N/N=C(\Cc2ncc[nH]2)c2ccccc2)cc(OC)c1OC
inactive

---

Experiment: Viability Counterscreen for Confirmatory qHTS for Inhibitors of ATXN expression; also: nearly all actives have a fitted effect of over 50% in size
Settings: HEK-293 ATXN2-luc cells viability, CellTiter-Fluor, 24 h
Out of some 2,100 compounds screened, about 260 (12%) were called active. Another 58% or so got no clear call; they are omitted. Calls follow the shape of the dose curve; as a rule, active = well fitted cell-killing curve with a large enough effect; inconclusive = small, poorly fitted or top-dose-only effect, or effect the other way; inactive = flat fitted curve, though single readings scatter. The list shows a part of the results.
Hello, when you answer, please use one of the following outcomes: T for active, F for inactive

// outcome(item) with item = O=C(Nc1nc(-c2ccc(F)c(F)c2)cs1)Nc1ccc(F)cc1F
T

// outcome(item) with item = O=C(CCN1C(=O)C2CC=CCC2C1=O)Nc1nc(-c2ccc(F)c(F)c2)cs1 (stereo unspecified)
F

// outcome(item) with item = COc1cc2cc(C(=O)NC(C)c3cccc4ccccc34)c(N)nc2cc1OC (stereo unspecified)
F

// outcome(item) with item = CCCC(=O)Nc1c(C(=O)OCC)[nH]c2ccccc12
F

// outcome(item) with item = COc1cc(N)ccc1Nc1c2ccccc2nc2ccccc12
T

// outcome(item) with item = CCC(C)(C)c1ccc(Oc2ccc(N)cc2)cc1
F

These entries and their values trace back to PubChem BioAssay AID1745850.
